The reported numbers originate from ChEMBL document CHEMBL5058577.

Tested on: Fibroblast
Assay: Multiplex assay against human fibroblast
Assay type: toxicity, cell-based
Conditions: 24 h, 1 µM, compound concentration 1 uM, replicate 1
Form field: Population Healthy Nuclei (%) (one value per entry).
Note: unit % is implicit; provide only the numeric part.

Previously resolved entries follow.
Nc1nc(CC(=O)Nc2ccc(CCNC[C@H](O)c3ccccc3)cc2)cs1 [MIRABEGRON]    64
COC(c1ccccc1)(c1ccccc1)[C@H](Oc1nc(C)cc(C)n1)C(=O)O [AMBRISENTAN]    67

INPUT: Bench note: what Population Healthy Nuclei (%) did CCC(=O)OCC(=O)[C@@]1(OC(=O)CC)[C@@H](C)C[C@H]2[C@@H]3CCC4=CC(=O)C=C[C@]4(C)[C@@]3(Cl)[C@@H](O)C[C@@]21C [BECLOMETHASONE DIPROPIONATE] show?
OUTPUT: 65

INPUT: Bench note: what Population Healthy Nuclei (%) did OCCCNc1cc(-c2ccnc(Nc3cccc(Cl)c3)n2)ccn1 show?
OUTPUT: 65
